experiment: Cytotoxicity MTT assay in HEK 293 cell line; format: cell-based; settings: human, HEK 293 cells, 48 hr of treatment, read-out: IC-50 value (cytotoxicity)
Value Type: IC50 at 48 h

Which IC50 at 48 h reading was recorded for the compound O=C(OCC1OC(O)C(O)C(O)C1O)c1cc2ccccc2oc1=O (stereo not shown) [Compound (4)] ?
> 1000 µg/mL

// provenance: patent US20240059725A1
